From: PubChem BioAssay

Target: PEG-3 (UniProt Q6IN02)
Sequence (Q6IN02 whole entry, looked up): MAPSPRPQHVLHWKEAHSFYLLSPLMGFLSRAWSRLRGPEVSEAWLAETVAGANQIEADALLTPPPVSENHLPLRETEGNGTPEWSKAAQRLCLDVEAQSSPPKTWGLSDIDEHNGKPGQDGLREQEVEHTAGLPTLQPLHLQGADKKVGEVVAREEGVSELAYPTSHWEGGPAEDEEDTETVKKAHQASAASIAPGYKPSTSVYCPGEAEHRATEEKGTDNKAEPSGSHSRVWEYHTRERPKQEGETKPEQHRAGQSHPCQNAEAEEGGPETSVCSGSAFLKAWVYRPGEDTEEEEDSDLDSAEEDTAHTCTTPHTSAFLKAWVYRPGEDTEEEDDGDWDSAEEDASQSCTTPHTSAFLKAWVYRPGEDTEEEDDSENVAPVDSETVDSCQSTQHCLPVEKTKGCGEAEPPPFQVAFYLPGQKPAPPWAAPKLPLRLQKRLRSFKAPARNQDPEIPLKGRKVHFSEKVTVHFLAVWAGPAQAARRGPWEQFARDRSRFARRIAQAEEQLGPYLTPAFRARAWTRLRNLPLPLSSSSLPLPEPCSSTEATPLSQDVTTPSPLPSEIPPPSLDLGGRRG
Assay: Peg3 promoter luciferase inhibitors, potency, dose response, cell-based, HeLa, CREF/GAPDH counter-screen panel (AID 624167)
Settings: CREF/GAPDH counter-screens; HeLa PEG-Prom luciferase reporter, overnight, run 2, dose range 1, at 100 µM (top of the series) unless noted
Measurement name: inhibition (%)
Provide the reading as a plain figure in %.

**Query** Determine reported inhibition for CN(C)CCNc1ncnc2c1sc1nc(N3CCOCC3)c3c(c12)CC(C)(C)SC3 ; test system: PEG-3 (UniProt Q6IN02).
**Result** 101

**Query** Determine reported inhibition for CC1CCCCN1C(=O)c1cccc(NC2=C(Cl)C(=O)N(Cc3ccccc3)C2=O)c1 (stereo not drawn) ; test system: PEG-3 (UniProt Q6IN02).
**Result** 101

**Query** Determine reported inhibition for C=CCn1c(C)cc(C(=O)CN2C(=O)c3ccccc3S2(=O)=O)c1C ; test system: PEG-3 (UniProt Q6IN02).
**Result** 96.6

**Query** Determine reported inhibition for COc1cc(C(=O)/C=C/c2cccnc2)c([N+](=O)[O-])cc1OC ; test system: PEG-3 (UniProt Q6IN02).
**Result** 99.8

**Query** Determine reported inhibition for COc1cccc(N2CCN(CC(=O)Nc3ccccc3C(=O)NCc3ccccc3)CC2)c1 ; test system: PEG-3 (UniProt Q6IN02).
**Result** 70.2

**Query** Determine reported inhibition for Oc1c(Br)cc(Br)c2cccnc12 ; test system: PEG-3 (UniProt Q6IN02).
**Result** 71

**Query** Determine reported inhibition for CCc1ccc2c(c1)Sc1ccccc1CC2N1CCN(C)CC1 (stereo not drawn) ; test system: PEG-3 (UniProt Q6IN02).
**Result** 102

**Query** Determine reported inhibition for CN(O)C(=S)c1ccccc1 ; test system: PEG-3 (UniProt Q6IN02).
**Result** 78.7

**Query** Determine reported inhibition for COc1cccc(OC)c1C(=O)Nc1cc(C)nn1-c1nc2ccccc2[nH]1 ; test system: PEG-3 (UniProt Q6IN02).
**Result** 65.1

**Query** Determine reported inhibition for Cc1c(C#N)c(N)nc2c3c(sc12)NC(=O)CC3c1ccc(Cl)cc1 (stereo not drawn) ; test system: PEG-3 (UniProt Q6IN02).
**Result** 100

**Query** Determine reported inhibition for CC(C)CCCCCCCCCCCCC(=O)NCC(=O)NC1C(O)C(O)C(Nc2ncnc3nc[nH]c23)OC1C(O)CO (stereo not drawn) ; test system: PEG-3 (UniProt Q6IN02).
**Result** 98.2

**Query** Determine reported inhibition for O=C1c2ccccc2S(=O)(=O)N1Cc1nc2ccccc2s1 ; test system: PEG-3 (UniProt Q6IN02).
**Result** 83.4

**Query** Determine reported inhibition for CCCCCCOc1ccc(/C(C)=N/NC2=NCCN2)cc1 ; test system: PEG-3 (UniProt Q6IN02).
**Result** 101

**Query** Determine reported inhibition for COc1cc(-c2cc(C(=O)N(C)Cc3ccccc3)c3ccccc3n2)cc(OC)c1OC ; test system: PEG-3 (UniProt Q6IN02).
**Result** 94.8

**Query** Determine reported inhibition for O=C(CCSc1nc2ccccc2s1)N/N=C/c1c(O)ccc2ccccc12 ; test system: PEG-3 (UniProt Q6IN02).
**Result** 82.3

**Query** Determine reported inhibition for COc1ccc(NS(=O)(=O)c2ccc3ccccc3c2)c2ncccc12 ; test system: PEG-3 (UniProt Q6IN02).
**Result** 73.1

**Query** Determine reported inhibition for Cc1ccc2nc(-c3ccccc3)cn2c1 ; test system: PEG-3 (UniProt Q6IN02).
**Result** 99
